Values from the supplement of paper PMC10307832

system: LU99A; assay: relative viability (nuclei count vs DMSO), 5 days (fraction); higher = more cells survive; conditions: first compound 0.01 µM
RECORDED_ENDPOINT: relative viability
Output spec: single numeric token, no unit.

| MOLECULE | TARGET | RECORDED_MEASUREMENT |
| --- | --- | --- |
| Cc1cn(-c2cc(NC(=O)c3ccc(C)c(Nc4nccc(-c5cccnc5)n4)c3)cc(C(F)(F)F)c2)cn1 [Nilotinib] + Nc1nc2[nH]cc(CCc3ccc(C(=O)N[C@@H](CCC(=O)O)C(=O)O)cc3)c2c(=O)[nH]1 [Pemetrexed] (partner 0.2 µM) | LU99A | 0.177 |
| Cc1cn(-c2cc(NC(=O)c3ccc(C)c(Nc4nccc(-c5cccnc5)n4)c3)cc(C(F)(F)F)c2)cn1 [Nilotinib] + COc1cccc2cc(-c3nc([C@H]4CC[C@H](C(=O)O)CC4)n4ncnc(N)c34)[nH]c12 [OSI-027] (partner 0.5 µM) | LU99A | 0.256 |

Ask: Quick one: relative viability for Cc1cn(-c2cc(NC(=O)c3ccc(C)c(Nc4nccc(-c5cccnc5)n4)c3)cc(C(F)(F)F)c2)cn1 [Nilotinib] + COc1cc2c(Oc3ccc(NC(=O)C4(C(=O)Nc5ccc(F)cc5)CC4)cc3F)ccnc2cc1OCCCN1CCOCC1 [Foretinib] (partner 0.25 µM) ?
Result: 0.889

---

Catalogue of compounds with associated relative viability
test system: A-427; experiment: relative viability (nuclei count vs DMSO), 5 days (fraction); higher = more cells survive; conditions: first compound 8 µM
Give only the figure.

| COMPOUND | RECORDED_MEASUREMENT |
| --- | --- |
| Nc1cccc2c1CN(C1CCC(=O)NC1=O)C2=O (centres undefined) [Lenalidomide] + CS(=O)(=O)CCNCc1ccc(-c2ccc3ncnc(Nc4ccc(OCc5cccc(F)c5)c(Cl)c4)c3c2)o1 [Lapatinib] (partner 2 µM) | 0.975 |

Ask: Param item = Nc1cccc2c1CN(C1CCC(=O)NC1=O)C2=O (centres undefined) [Lenalidomide] + COc1cccc2cc(-c3nc([C@H]4CC[C@H](C(=O)O)CC4)n4ncnc(N)c34)[nH]c12 [OSI-027] (partner 0.5 µM) ; retrieve measured relative viability.
Result: 0.514

Ask: Look up relative viability: Nc1cccc2c1CN(C1CCC(=O)NC1=O)C2=O (centres undefined) [Lenalidomide] + C[C@@H](Oc1cc(-c2cnn(C3CCNCC3)c2)cnc1N)c1c(Cl)ccc(F)c1Cl [Crizotinib] (partner 1 µM)
Result: 0.903

Ask: Looking for the measured relative viability of Nc1cccc2c1CN(C1CCC(=O)NC1=O)C2=O (centres undefined) [Lenalidomide] + CC(=O)Nc1cccc(-n2c(=O)n(C3CC3)c(=O)c3c(Nc4ccc(I)cc4F)n(C)c(=O)c(C)c32)c1 [Trametinib] (partner 0.02 µM) , can you help?
Result: 0.765

---

tested on: NCI-H727; assay: relative viability (nuclei count vs DMSO), 5 days (fraction); higher = more cells survive; details: first compound 2.53 µM
RECORDED_ENDPOINT: relative viability
Output: the number by itself.

Example entries begin here.
| MOLECULE | relative viability |
| --- | --- |
| Nc1cccc2c1CN(C1CCC(=O)NC1=O)C2=O (stereo not given) [Lenalidomide] + C[C@]1(O)C[C@@H](c2nc(-c3ccc4ccc(-c5ccccc5)nc4c3)c3c(N)nccn32)C1 [Linsitinib] (partner 1 µM) | 0.308 |
| Nc1cccc2c1CN(C1CCC(=O)NC1=O)C2=O (stereo not given) [Lenalidomide] + CS(=O)(=O)N1CCN(Cc2cc3nc(-c4cccc5[nH]ncc45)nc(N4CCOCC4)c3s2)CC1 [Pictilisib] (partner 1 µM) | 0.44 |
| Nc1cccc2c1CN(C1CCC(=O)NC1=O)C2=O (stereo not given) [Lenalidomide] + C[C@@H](Oc1cc(-c2cnn(C3CCNCC3)c2)cnc1N)c1c(Cl)ccc(F)c1Cl [Crizotinib] (partner 1 µM) | 0.894 |
| Nc1cccc2c1CN(C1CCC(=O)NC1=O)C2=O (stereo not given) [Lenalidomide] + N=C(N)NC(=N)NCCc1ccccc1 [Phenformin] (partner 250 µM) | 0.505 |

Consider now this further molecule.
Ask: Tell me the measured relative viability of Nc1cccc2c1CN(C1CCC(=O)NC1=O)C2=O (stereo not given) [Lenalidomide] + O=C(CCCCCCC(=O)Nc1ccccc1)NO [Vorinostat] (partner 1 µM) , please.
Result: 1.32
